Test system: L. gasseri MCC2 DSM 23882
Experiment: Antibiotic susceptibility, E-test
Format: cell-based
Details: Lactobacillus gasseri, DSM23882; read-out: MIC
QUANTITY NAME: MIC

STRUCTURE SMILES STRING: CN(C)[C@@H]1C(O)=C(C(N)=O)C(=O)[C@@]2(O)C(O)=C3C(=O)c4c(O)cccc4[C@@](C)(O)[C@H]3C[C@@H]12
SYSTEM UNDER TEST: L. gasseri MCC2 DSM 23882
MEASURED VALUE: 0.5 µg/mL
--
STRUCTURE SMILES STRING: CO[C@@]1(NC(=O)Cc2cccs2)C(=O)N2C(C(=O)O)=C(COC(N)=O)CS[C@@H]21
SYSTEM UNDER TEST: L. gasseri MCC2 DSM 23882
MEASURED VALUE: 1.5 µg/mL
--
STRUCTURE SMILES STRING: CC1(C)S[C@@H]2[C@H](NC(=O)[C@H](N)c3ccccc3)C(=O)N2[C@H]1C(=O)O
SYSTEM UNDER TEST: L. gasseri MCC2 DSM 23882
MEASURED VALUE: 0.031 µg/mL
--
STRUCTURE SMILES STRING: CO/N=C(\C(=O)N[C@@H]1C(=O)N2C(C(=O)O)=C(COC(N)=O)CS[C@H]12)c1ccco1
SYSTEM UNDER TEST: L. gasseri MCC2 DSM 23882
MEASURED VALUE: 0.19 µg/mL
--
STRUCTURE SMILES STRING: C[C@@H](O)[C@H]1C(=O)N2C(C(=O)O)=C(SCCN=CN)C[C@H]12
SYSTEM UNDER TEST: L. gasseri MCC2 DSM 23882
MEASURED VALUE: 0.047 µg/mL
--
STRUCTURE SMILES STRING: O=C(O)c1cn(C2CC2)c2cc(N3CCNCC3)c(F)cc2c1=O
SYSTEM UNDER TEST: L. gasseri MCC2 DSM 23882
MEASURED VALUE: > 32 µg/mL
--
STRUCTURE SMILES STRING: O=C(N[C@H](CO)[C@H](O)c1ccc([N+](=O)[O-])cc1)C(Cl)Cl
SYSTEM UNDER TEST: L. gasseri MCC2 DSM 23882
MEASURED VALUE: 0.75 µg/mL
--
STRUCTURE SMILES STRING: CO[C@H]1/C=C/O[C@@]2(C)Oc3c(C)c(O)c4c(O)c(c(/C=N/N5CCN(C)CC5)c(O)c4c3C2=O)NC(=O)/C(C)=C\C=C\[C@H](C)[C@H](O)[C@@H](C)[C@@H](O)[C@@H](C)[C@H](OC(C)=O)[C@@H]1C
SYSTEM UNDER TEST: L. gasseri MCC2 DSM 23882
MEASURED VALUE: 0.064 µg/mL
--
STRUCTURE SMILES STRING: CC[C@H]1OC(=O)[C@H](C)[C@@H](O[C@H]2C[C@@](C)(OC)[C@@H](O)[C@H](C)O2)[C@H](C)[C@@H](O[C@@H]2O[C@H](C)C[C@H](N(C)C)[C@H]2O)[C@](C)(O)C[C@@H](C)C(=O)[C@H](C)[C@@H](O)[C@]1(C)O
SYSTEM UNDER TEST: L. gasseri MCC2 DSM 23882
MEASURED VALUE: 0.047 µg/mL

Origin of values: patent US20140037792A1
